# Tested on: 415267-285-R-J2-PDC complex spheroid viability
# method.notes: Anticancer human tumor 415267-285-R-J2-PDC patient-derived breast carcinoma cell line growth inhibition [POLQ]
# experimental.conditions: second compound 0.1 µM; first compound 0.0316 µM; stronger effect = lower value
Parameter viability, T/C: see the listing below.

>  <compound>
CC(C)n1c(=O)n(C)c2cnc3cc(F)c(-c4ccc(OCCCN5CCCCC5)nc4)cc3c21 + Cc1cccc(N(C)C(=O)C2C(O)CCN2c2nc(C)cc(C(F)(F)F)c2C#N)c1

>  <study.system>
415267-285-R-J2-PDC complex spheroid viability

>  <viability, T/C>
89.7%

$$$$
>  <compound>
COc1cccc(OCCCN)c1-c1cc(Nc2cnc(C#N)cn2)n[nH]1 + COC1C(OC(N)=O)C(O)C(Oc2ccc3c(O)c(NC(=O)c4ccc(O)c(CC=C(C)C)c4)c(=O)oc3c2C)OC1(C)C

>  <study.system>
415267-285-R-J2-PDC complex spheroid viability

>  <viability, T/C>
7.65%

$$$$
>  <compound>
COc1cc(C2c3cc4c(cc3C(OC3OC5COC(C)OC5C(O)C3O)C3COC(=O)C23)OCO4)cc(OC)c1O (stereo not given) + COC1C(OC(N)=O)C(O)C(Oc2ccc3c(O)c(NC(=O)c4ccc(O)c(CC=C(C)C)c4)c(=O)oc3c2C)OC1(C)C

>  <study.system>
415267-285-R-J2-PDC complex spheroid viability

>  <viability, T/C>
97.4%

$$$$
>  <compound>
O=C(c1cc(Cc2n[nH]c(=O)c3ccccc23)ccc1F)N1CCN(C(=O)C2CC2)CC1 + Cc1cccc(N(C)C(=O)C2C(O)CCN2c2nc(C)cc(C(F)(F)F)c2C#N)c1

>  <study.system>
415267-285-R-J2-PDC complex spheroid viability

>  <viability, T/C>
94%

$$$$
>  <compound>
C=CCn1c(=O)c2cnc(Nc3ccc(N4CCN(C)CC4)cc3)nc2n1-c1cccc(C(C)(C)O)n1 + COC1C(OC(N)=O)C(O)C(Oc2ccc3c(O)c(NC(=O)c4ccc(O)c(CC=C(C)C)c4)c(=O)oc3c2C)OC1(C)C

>  <study.system>
415267-285-R-J2-PDC complex spheroid viability

>  <viability, T/C>
101%

$$$$
>  <compound>
CC1COCCN1c1cc(C2(O)CC3CCC(C2)O3)c2cnn(-c3ccn[nH]3)c2n1 (stereo not given) + Cc1cccc(N(C)C(=O)C2C(O)CCN2c2nc(C)cc(C(F)(F)F)c2C#N)c1

>  <study.system>
415267-285-R-J2-PDC complex spheroid viability

>  <viability, T/C>
17.1%

$$$$
>  <compound>
COc1cccc2c1C(=O)c1c(O)c3c(c(O)c1C2=O)CC(O)(C(=O)CO)CC3OC1CC(N)C(O)C(C)O1 (stereo not given) + Cc1cccc(N(C)C(=O)C2C(O)CCN2c2nc(C)cc(C(F)(F)F)c2C#N)c1

>  <study.system>
415267-285-R-J2-PDC complex spheroid viability;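 note: luminescence used as stand-in measure of viable cells; spheroids exposed to compounds for one week before readout; 100% = DMSO vehicle control viability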

>  <viability, T/C>
38.3%

$$$$
>  <compound>
CC1COCCN1c1cc(-c2ccnn2C)c2ccnc(-c3ccn[nH]3)c2n1 (stereo not given) + Cc1cccc(N(C)C(=O)C2C(O)CCN2c2nc(C)cc(C(F)(F)F)c2C#N)c1

>  <study.system>
415267-285-R-J2-PDC complex spheroid viability;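 note: luminescence used as stand-in measure of viable cells; spheroids exposed to compounds for one week before readout; 100% = DMSO vehicle control viability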

>  <viability, T/C>
41.2%

$$$$
>  <compound>
CC(C)n1c(=O)n(C)c2cnc3cc(F)c(-c4ccc(OCCCN5CCCCC5)nc4)cc3c21 + COC1C(OC(N)=O)C(O)C(Oc2ccc3c(O)c(NC(=O)c4ccc(O)c(CC=C(C)C)c4)c(=O)oc3c2C)OC1(C)C

>  <study.system>
415267-285-R-J2-PDC complex spheroid viability;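 note: luminescence used as stand-in measure of viable cells; spheroids exposed to compounds for one week before readout; 100% = DMSO vehicle control viability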

>  <viability, T/C>
89.8%

$$$$
>  <compound>
O=C(Nc1ccc(O)c(NS(=O)(=O)c2ccc(F)cc2)c1)c1ccc(-c2ccccc2)cc1 + COC1C(OC(N)=O)C(O)C(Oc2ccc3c(O)c(NC(=O)c4ccc(O)c(CC=C(C)C)c4)c(=O)oc3c2C)OC1(C)C

>  <study.system>
415267-285-R-J2-PDC complex spheroid viability;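 note: luminescence used as stand-in measure of viable cells; spheroids exposed to compounds for one week before readout; 100% = DMSO vehicle control viability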

>  <viability, T/C>
95.8%

$$$$

The origin of these recorded values is PubChem BioAssay AID1963847.
